Source of measurements: PubChem BioAssay AID1963444

- Tested on: HSSY-II complex spheroid growth, percent test/control
- EXPERIMENT_SUMMARY: Anticancer human tumor HSSY-II cell line growth inhibition [Asc]; active = viability on the fitted dose curve at most 10% of control; inactive = the rest;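 note: spheroids exposed to drug for 7 days before reading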
- PROTOCOL_CONDITIONS: second compound 1 µM; first compound 0.0949 µM
Parameter call: string, one of TRUE (active), FALSE (inactive)

# count of solved cases: 3
Cc1nc(N2CCC3(CC2)COC(C)C3N)c(CO)nc1Sc1ccnc(N)c1Cl (centres undefined) + CNC(C)C(=O)NC1CN(S(=O)(=O)c2cccc(S(=O)(=O)N3CCC4CCC(C(=O)NC(c5ccccc5)c5ccccc5)N4C(=O)C(NC(=O)C(C)NC)C3)c2)CCC2CCC(C(=O)NC(c3ccccc3)c3ccccc3)N2C1=O; FALSE
Cc1nc(N2CCC3(CC2)COC(C)C3N)c(CO)nc1Sc1ccnc(N)c1Cl (centres undefined) + Cc1c(S(C)(=O)=O)c(-c2cc(F)cc(N3CCN(c4ccc(NS(=O)(=O)c5ccc(NC(CCN6CCC(C(=O)OCCCP(=O)(O)O)CC6)CSc6ccccc6)c(S(=O)(=O)C(F)(F)F)c5)cc4)CC3)c2)c(-c2ccc(Cl)cc2)n1C(C)C; FALSE
CCN1C(C(=O)NC23CCC(C(=O)O)(CC2)CC3)C(c2cccc(Cl)c2F)C2(C(=O)Nc3cc(Cl)ccc32)C12CCCCC2 (centres undefined) + CNC(C)C(=O)NC1CN(S(=O)(=O)c2cccc(S(=O)(=O)N3CCC4CCC(C(=O)NC(c5ccccc5)c5ccccc5)N4C(=O)C(NC(=O)C(C)NC)C3)c2)CCC2CCC(C(=O)NC(c3ccccc3)c3ccccc3)N2C1=O; FALSE

Could you now consider this next molecule?
*Q* Can you look up the reported call for NC(=O)C(=Cn1cnc(-c2cc(C(F)(F)F)cc(C(F)(F)F)c2)n1)c1cncnc1 + CNC(C)C(=O)NC1CN(S(=O)(=O)c2cccc(S(=O)(=O)N3CCC4CCC(C(=O)NC(c5ccccc5)c5ccccc5)N4C(=O)C(NC(=O)C(C)NC)C3)c2)CCC2CCC(C(=O)NC(c3ccccc3)c3ccccc3)N2C1=O for me?
*A* TRUE

---

- Tested on: HSSY-II complex spheroid growth, percent test/control
- EXPERIMENT_SUMMARY: Anticancer human tumor HSSY-II cell line growth inhibition [Asc];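 note: spheroids exposed to drug for 7 days before reading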
- PROTOCOL_CONDITIONS: curve of first compound; second compound 0.0949 µM
- Source text: Multicellular complex tumor spheroid response to apoptosis pathway targeting inhibitors Alrizomadlin, Pelcitoclax, and Dasminapant in combination with a variety of drugs and investigational agents in selected tumor cell lines […] Compounds. […] If the clinical Cmax for an agent had not been determined, the highest concentration tested was 10 microM. […]
PROPERTY_LABEL: pIC50
Quick note: pIC50 means taking -log10 of the concentration in moles per liter.

Cc1nc(N2CCC3(CC2)COC(C)C3N)c(CO)nc1Sc1ccnc(N)c1Cl (centres undefined) + CCN1C(C(=O)NC23CCC(C(=O)O)(CC2)CC3)C(c2cccc(Cl)c2F)C2(C(=O)Nc3cc(Cl)ccc32)C12CCCCC2; 6.21
COc1c(OCCCN2CCOCC2)ccc2c3n(c(=NC(=O)c4cnc(N)nc4)nc12)CCN3 + CCN1C(C(=O)NC23CCC(C(=O)O)(CC2)CC3)C(c2cccc(Cl)c2F)C2(C(=O)Nc3cc(Cl)ccc32)C12CCCCC2; 8.44
NC1CCC(NC2CC2c2ccccc2)CC1 (centres undefined) + CCN1C(C(=O)NC23CCC(C(=O)O)(CC2)CC3)C(c2cccc(Cl)c2F)C2(C(=O)Nc3cc(Cl)ccc32)C12CCCCC2; 8.68
C=C(F)C(=O)N1CCN(c2nc(OCC3CCCN3C)nc3c2CCN(c2cccc4cccc(Cl)c24)C3)CC1CC#N (centres undefined) + CCN1C(C(=O)NC23CCC(C(=O)O)(CC2)CC3)C(c2cccc(Cl)c2F)C2(C(=O)Nc3cc(Cl)ccc32)C12CCCCC2; 6.47
C=CC(=O)N1CCN(c2nc(=O)n(-c3c(C)ccnc3C(C)C)c3nc(-c4c(O)cccc4F)c(F)cc23)C(C)C1 (centres undefined) + CCN1C(C(=O)NC23CCC(C(=O)O)(CC2)CC3)C(c2cccc(Cl)c2F)C2(C(=O)Nc3cc(Cl)ccc32)C12CCCCC2; 5.59

*Q* Give reported pIC50 value for CNC(C)C(=O)NC1CN(S(=O)(=O)c2cccc(S(=O)(=O)N3CCC4CCC(C(=O)NC(c5ccccc5)c5ccccc5)N4C(=O)C(NC(=O)C(C)NC)C3)c2)CCC2CCC(C(=O)NC(c3ccccc3)c3ccccc3)N2C1=O (centres undefined) + CCN1C(C(=O)NC23CCC(C(=O)O)(CC2)CC3)C(c2cccc(Cl)c2F)C2(C(=O)Nc3cc(Cl)ccc32)C12CCCCC2
*A* 8.48

*Q* Give reported pIC50 value for NC(=O)C(=Cn1cnc(-c2cc(C(F)(F)F)cc(C(F)(F)F)c2)n1)c1cncnc1 + CCN1C(C(=O)NC23CCC(C(=O)O)(CC2)CC3)C(c2cccc(Cl)c2F)C2(C(=O)Nc3cc(Cl)ccc32)C12CCCCC2
*A* 8.51

*Q* Give reported pIC50 value for Cn1ncnc1[C@H]1c2n[nH]c(=O)c3cc(F)cc(c23)N[C@@H]1c1ccc(F)cc1 + CCN1C(C(=O)NC23CCC(C(=O)O)(CC2)CC3)C(c2cccc(Cl)c2F)C2(C(=O)Nc3cc(Cl)ccc32)C12CCCCC2
*A* 8.70

*Q* Give reported pIC50 value for CCN1CCN(Cc2ccc(Nc3ncc(F)c(-c4cc(F)c5nc(C)n(C(C)C)c5c4)n3)nc2)CC1 + CCN1C(C(=O)NC23CCC(C(=O)O)(CC2)CC3)C(c2cccc(Cl)c2F)C2(C(=O)Nc3cc(Cl)ccc32)C12CCCCC2
*A* 7.77

---

Items are presented alongside their recorded viability, T/C.
- Test system: HSSY-II complex spheroid growth, percent test/control
- EXPERIMENT_SUMMARY: Anticancer human tumor HSSY-II cell line growth inhibition [Asc];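 note: spheroids exposed to drug for 7 days before reading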
- PROTOCOL_CONDITIONS: second compound 0.3 µM; first compound 0.316 µM; stronger effect = lower value
Report only the number, with the unit % understood.

As a guide, the following entries are already answered.
O=C(c1ccc(F)c(F)c1Nc1ccc(I)cc1F)N1CC(O)([C@@H]2CCCCN2)C1 + CCN1C(C(=O)NC23CCC(C(=O)O)(CC2)CC3)C(c2cccc(Cl)c2F)C2(C(=O)Nc3cc(Cl)ccc32)C12CCCCC2; 24.2
COc1c(OCCCN2CCOCC2)ccc2c3n(c(=NC(=O)c4cnc(N)nc4)nc12)CCN3 + CCN1C(C(=O)NC23CCC(C(=O)O)(CC2)CC3)C(c2cccc(Cl)c2F)C2(C(=O)Nc3cc(Cl)ccc32)C12CCCCC2; 5.2
C=CC(=O)N1CCN(c2nc(=O)n(-c3c(C)ccnc3C(C)C)c3nc(-c4c(O)cccc4F)c(F)cc23)C(C)C1 (centres undefined) + CCN1C(C(=O)NC23CCC(C(=O)O)(CC2)CC3)C(c2cccc(Cl)c2F)C2(C(=O)Nc3cc(Cl)ccc32)C12CCCCC2; 26

Now take the following molecule into account.
*Q* Give reported viability, T/C value for CNC(C)C(=O)NC1CN(S(=O)(=O)c2cccc(S(=O)(=O)N3CCC4CCC(C(=O)NC(c5ccccc5)c5ccccc5)N4C(=O)C(NC(=O)C(C)NC)C3)c2)CCC2CCC(C(=O)NC(c3ccccc3)c3ccccc3)N2C1=O (centres undefined) + CCN1C(C(=O)NC23CCC(C(=O)O)(CC2)CC3)C(c2cccc(Cl)c2F)C2(C(=O)Nc3cc(Cl)ccc32)C12CCCCC2
*A* 14.3

---

- Tested on: HSSY-II complex spheroid growth, percent test/control
- EXPERIMENT_SUMMARY: Anticancer human tumor HSSY-II cell line growth inhibition [Asc];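 note: spheroids exposed to drug for 7 days before reading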
- PROTOCOL_CONDITIONS: second compound 1 µM; first compound 0.3 µM; stronger effect = lower value
Items are presented alongside their recorded viability, T/C.
Report only the number, with the unit % understood.

As a guide, the following entries are already answered.
Cc1nc(N2CCC3(CC2)COC(C)C3N)c(CO)nc1Sc1ccnc(N)c1Cl (stereo not drawn) + Cc1c(S(C)(=O)=O)c(-c2cc(F)cc(N3CCN(c4ccc(NS(=O)(=O)c5ccc(NC(CCN6CCC(C(=O)OCCCP(=O)(O)O)CC6)CSc6ccccc6)c(S(=O)(=O)C(F)(F)F)c5)cc4)CC3)c2)c(-c2ccc(Cl)cc2)n1C(C)C; 51.7
CCN1C(C(=O)NC23CCC(C(=O)O)(CC2)CC3)C(c2cccc(Cl)c2F)C2(C(=O)Nc3cc(Cl)ccc32)C12CCCCC2 (stereo not drawn) + Cc1c(S(C)(=O)=O)c(-c2cc(F)cc(N3CCN(c4ccc(NS(=O)(=O)c5ccc(NC(CCN6CCC(C(=O)OCCCP(=O)(O)O)CC6)CSc6ccccc6)c(S(=O)(=O)C(F)(F)F)c5)cc4)CC3)c2)c(-c2ccc(Cl)cc2)n1C(C)C; 9.68

Now take the following molecule into account.
*Q* Give reported viability, T/C value for NC(=O)C(=Cn1cnc(-c2cc(C(F)(F)F)cc(C(F)(F)F)c2)n1)c1cncnc1 + Cc1c(S(C)(=O)=O)c(-c2cc(F)cc(N3CCN(c4ccc(NS(=O)(=O)c5ccc(NC(CCN6CCC(C(=O)OCCCP(=O)(O)O)CC6)CSc6ccccc6)c(S(=O)(=O)C(F)(F)F)c5)cc4)CC3)c2)c(-c2ccc(Cl)cc2)n1C(C)C
*A* 0.23
